# STUDY SYSTEM: HLA-B*07 (Homo sapiens, UniProt P01889)
# ASSAY NOTES: MHC binding assay (UV-ligand exchange, ELISA of stabilized MHC complexes)
# EXPERIMENTAL CONDITIONS: peptide exchange yield on HLA-B*07, UV-ligand exchange
OBSERVABLE: Peptide exchange

# SUBSTANCE, OBSERVABLE, VALUE OBSERVED
data = [
    ("292 (LPMTHRLQL; listed as Homo sapiens) [compound 292]", "Peptide exchange", "+++ (>50 = +++)"),
    ("147 (HVAQPAVVL; listed as Homo sapiens) [compound 147]", "Peptide exchange", "+++ (>50 = +++)"),
    ("202 (SPSREASAL; listed as Homo sapiens) [compound 202]", "Peptide exchange", "+++ (>50 = +++)"),
]

###

# STUDY SYSTEM: HLA-B*07 (Homo sapiens, UniProt P01889)
# ASSAY NOTES: MHC binding assay (UV-ligand exchange, ELISA of stabilized MHC complexes)
# EXPERIMENTAL CONDITIONS: peptide exchange yield on HLA-B*07, UV-ligand exchange
OBSERVABLE: Peptide exchange

# SUBSTANCE, STUDY SYSTEM, VALUE OBSERVED
data = [
    ("49 (APEKARAFL; listed as Homo sapiens) [compound 49]", "HLA-B*07 (Homo sapiens, UniProt P01889)", "+++ (>50 = +++)"),
    ("325 (SPRSNPVRL; listed as Homo sapiens) [compound 325]", "HLA-B*07 (Homo sapiens, UniProt P01889)", "++++ (>75% = ++++)"),
    ("460 (APLMPLGKTL; listed as Homo sapiens) [compound 460]", "HLA-B*07 (Homo sapiens, UniProt P01889)", "++++ (>75% = ++++)"),
    ("318 (TPISNTGVL; listed as Homo sapiens) [compound 318]", "HLA-B*07 (Homo sapiens, UniProt P01889)", "++++ (>75% = ++++)"),
]

Consider the substance 2 (VPGSDPARYEFL; listed as Homo sapiens) [compound 2] and give its measured Peptide exchange.
+++ (>50 = +++)

Consider the substance 343 (RPRPPKVLGL; listed as Homo sapiens) [compound 343] and give its measured Peptide exchange.
+++ (>50 = +++)

Consider the substance 177 (VWEPQGSSRSL; listed as Homo sapiens) [compound 177] and give its measured Peptide exchange.
+++ (>50 = +++)

###

# STUDY SYSTEM: HLA-B*07 (Homo sapiens, UniProt P01889)
# ASSAY NOTES: MHC binding assay (UV-ligand exchange, ELISA of stabilized MHC complexes)
# EXPERIMENTAL CONDITIONS: peptide exchange yield on HLA-B*07, UV-ligand exchange
OBSERVABLE: Peptide exchange

# SUBSTANCE, STUDY SYSTEM, OBSERVABLE, VALUE OBSERVED
rows = [
    ("477 (NPVPVITWYKDNRL; listed as Homo sapiens) [compound 477]", "HLA-B*07 (Homo sapiens, UniProt P01889)", "Peptide exchange", "++++ (>75% = ++++)"),
    ("173 (VIINNPISL; listed as Homo sapiens) [compound 173]", "HLA-B*07 (Homo sapiens, UniProt P01889)", "Peptide exchange", "++ (>20% = ++)"),
    ("354 (APAKDARASL; listed as Homo sapiens) [compound 354]", "HLA-B*07 (Homo sapiens, UniProt P01889)", "Peptide exchange", "++++ (>75% = ++++)"),
    ("304 (SPLIGDFPAF; listed as Homo sapiens) [compound 304]", "HLA-B*07 (Homo sapiens, UniProt P01889)", "Peptide exchange", "++ (>20% = ++)"),
]

###

# STUDY SYSTEM: HLA-B*07 (Homo sapiens, UniProt P01889)
# ASSAY NOTES: MHC binding assay (UV-ligand exchange, ELISA of stabilized MHC complexes)
# EXPERIMENTAL CONDITIONS: peptide exchange yield on HLA-B*07, UV-ligand exchange
# From the text: Candidate peptides for T cell based therapies according to the present invention were further tested for their MHC binding capacity (affinity). The individual peptide-MHC complexes were produced by UV-ligand exchange, where a UV-sensitive peptide is cleaved upon UV-irradiation and exchanged with the peptide of interest as analyzed. Only peptide candidates that can effectively bind and stabilize the peptide-receptive MHC molecules prevent dissociation of the MHC complexes. […]
OBSERVABLE: Peptide exchange

// below: answered substances
# SUBSTANCE, STUDY SYSTEM, Peptide exchange
measured = [
    ("165 (RPSKEMQVTI; listed as Homo sapiens) [compound 165]", "HLA-B*07 (Homo sapiens, UniProt P01889)", "++++ (>75% = ++++)"),
    ("29 (APLRVHITSL; listed as Homo sapiens) [compound 29]", "HLA-B*07 (Homo sapiens, UniProt P01889)", "++++ (>75% = ++++)"),
    ("377 (SPFSKRIKL; listed as Homo sapiens) [compound 377]", "HLA-B*07 (Homo sapiens, UniProt P01889)", "+++ (>50 = +++)"),
    ("36 (RPFSREMDL; listed as Homo sapiens) [compound 36]", "HLA-B*07 (Homo sapiens, UniProt P01889)", "+++ (>50 = +++)"),
    ("462 (MPLLADVRL; listed as Homo sapiens) [compound 462]", "HLA-B*07 (Homo sapiens, UniProt P01889)", "++++ (>75% = ++++)"),
]

What is its Peptide exchange for HLA-B*07 (Homo sapiens, UniProt P01889)? Entry: 360 (SPASRSISLL; listed as Homo sapiens) [compound 360]
++++ (>75% = ++++)

What is its Peptide exchange for HLA-B*07 (Homo sapiens, UniProt P01889)? Entry: 199 (SPFWIHQA; listed as Homo sapiens) [compound 199]
++ (>20% = ++)

###

# STUDY SYSTEM: HLA-B*07 (Homo sapiens, UniProt P01889)
# ASSAY NOTES: MHC binding assay (UV-ligand exchange, ELISA of stabilized MHC complexes)
# EXPERIMENTAL CONDITIONS: peptide exchange yield on HLA-B*07, UV-ligand exchange
OBSERVABLE: Peptide exchange

// below: answered substances
# SUBSTANCE, Peptide exchange
measured = [
    ("37 (LPPPRALTL; listed as Homo sapiens) [compound 37]", "+++ (>50 = +++)"),
    ("321 (QPQQPGFFL; listed as Homo sapiens) [compound 321]", "+++ (>50 = +++)"),
    ("451 (VPILPLNHAL; listed as Homo sapiens) [compound 451]", "++++ (>75% = ++++)"),
    ("122 (KPRTPFTTAQLL; listed as Homo sapiens) [compound 122]", "++++ (>75% = ++++)"),
    ("61 (LPRIPFSTF; listed as Homo sapiens) [compound 61]", "++++ (>75% = ++++)"),
]

Consider the substance 219 (VPHTGRYTCL; listed as Homo sapiens) [compound 219] and give its measured Peptide exchange.
+++ (>50 = +++)

Consider the substance 454 (SPDPAHLESL; listed as Homo sapiens) [compound 454] and give its measured Peptide exchange.
++++ (>75% = ++++)

Consider the substance 225 (SPIIHSIL; listed as Homo sapiens) [compound 225] and give its measured Peptide exchange.
+++ (>50 = +++)

Consider the substance 315 (APVVFPAL; listed as Homo sapiens) [compound 315] and give its measured Peptide exchange.
++++ (>75% = ++++)

###

# STUDY SYSTEM: HLA-B*07 (Homo sapiens, UniProt P01889)
# ASSAY NOTES: MHC binding assay (UV-ligand exchange, ELISA of stabilized MHC complexes)
# EXPERIMENTAL CONDITIONS: peptide exchange yield on HLA-B*07, UV-ligand exchange

# SUBSTANCE, STUDY SYSTEM, Peptide exchange
data = [
    ("255 (VPSHWMVAL; listed as Homo sapiens) [compound 255]", "HLA-B*07 (Homo sapiens, UniProt P01889)", "++++ (>75% = ++++)"),
    ("79 (GPASDHPSL; listed as Homo sapiens) [compound 79]", "HLA-B*07 (Homo sapiens, UniProt P01889)", "+++ (>50 = +++)"),
    ("283 (RPQPGWRESL; listed as Homo sapiens) [compound 283]", "HLA-B*07 (Homo sapiens, UniProt P01889)", "++++ (>75% = ++++)"),
    ("54 (VPSCGRSVEGL; listed as Homo sapiens) [compound 54]", "HLA-B*07 (Homo sapiens, UniProt P01889)", "+++ (>50 = +++)"),
]
